assay: in vivo; conditions: rat, po
readoutLabel: LD50

Solved entries (count: 5):
molecule=CN(SC(C)(C)C#N)C(=O)ON=C1CSCCS1 readoutlabel=LD50 observedvalue="40 mg/kg"
molecule=CN(SSC(C)(C)C#N)C(=O)ON=CC(C)(C)C#N readoutlabel=LD50 observedvalue="14 mg/kg"
molecule=CN(SSC(C)(C)C#N)C(=O)ON=C1CSCCS1 readoutlabel=LD50 observedvalue="32 mg/kg"
molecule=CC(=NOC(=O)N(C)SC(C)(C)C#N)SC(C)C readoutlabel=LD50 observedvalue="20 mg/kg"
molecule=CSC(C)=NOC(=O)N(C)SSC(C)(C)C#N readoutlabel=LD50 observedvalue="127 mg/kg"

Determine its reported LD50: CSC(C)=NOC(=O)N(C)SC(C)(C)C#N
127 mg/kg

Determine its reported LD50: CN(SC(C)(C)CCl)C(=O)ON=C1SC(C)(C)C(=O)N1C
343 mg/kg

Determine its reported LD50: CC(=NOC(=O)N(C)SSC(C)(C)C#N)SCCC#N
28 mg/kg

Determine its reported LD50: CC(=NOC(=O)N(C)SSC(C)(C)C#N)SC(C)C
18 mg/kg

Determine its reported LD50: CN(SC(C)(C#N)CCl)C(=O)ON=C1SC(C)(C)C(=O)N1C (stereo not drawn)
320 mg/kg

Determine its reported LD50: CC(=NOC(=O)N(C)SC(C)(C)C#N)SCCC#N
14.1 mg/kg

Determine its reported LD50: CC1OCSC1=NOC(=O)N(C)SSC(C)(C)C#N (stereo not drawn)
14 mg/kg
